IC50 values by entry
# Tested on: phospho (S293) BCKDHA in human skeletal myocytes
# testMethodNotes: Phospho BCKDHA Alpha Surefire Cell Assay
# Format: cell-based
# runParameters: 60 minutes with compound, geometric mean
quantity: IC50 (µM)

>  <molecule>
C[C@@H]1CCc2cc(-c3c(C(=O)O)sc4cc(F)ccc34)c(F)cc2O1 (single isomer, unassigned) [Example 69]

>  <quantity>
IC50

>  <unitsOfMeasure>
µM

>  <valueQualifier>
=

>  <reading>
3.6

$$$$
>  <molecule>
C[C@@H]1CCc2c(ccc(-c3c(C(=O)O)sc4cc(F)ccc34)c2F)O1 (single isomer, unassigned) [Example 78]

>  <quantity>
IC50

>  <unitsOfMeasure>
µM

>  <valueQualifier>
=

>  <reading>
3.9

$$$$
>  <molecule>
C[C@@H]1CCc2cc(-c3c(C(=O)O)sc4ccccc34)ccc2O1 (single isomer, unassigned) [Example 45]

>  <quantity>
IC50

>  <unitsOfMeasure>
µM

>  <valueQualifier>
>

>  <reading>
60

$$$$
>  <molecule>
COc1c(F)cc(Cl)c(-c2c(C(=O)O)sc3cc(F)ccc23)c1F (atropisomer, axis not shown) [Example 16]

>  <quantity>
IC50

>  <unitsOfMeasure>
µM

>  <valueQualifier>
=

>  <reading>
0.015

$$$$
>  <molecule>
C[C@@H]1CCc2cc(-c3c(C(=O)O)sc4cc(Cl)ccc34)ccc2O1 (single isomer, unassigned) [Example 42]

>  <quantity>
IC50

>  <unitsOfMeasure>
µM

>  <valueQualifier>
>

>  <reading>
24

$$$$
>  <molecule>
C[C@@H]1CCc2c(ccc(-c3c(C(=O)O)sc4cc(F)ccc34)c2F)O1 (single isomer, unassigned) [Example 77]

>  <quantity>
IC50

>  <unitsOfMeasure>
µM

>  <valueQualifier>
=

>  <reading>
8.6

$$$$
>  <molecule>
C[C@@H]1CCc2cc(-c3c(C(=O)O)sc4ccccc34)ccc2O1 (single isomer, unassigned) [Example 46]

>  <quantity>
IC50

>  <unitsOfMeasure>
µM

>  <valueQualifier>
>

>  <reading>
29

$$$$
>  <molecule>
COc1c(F)cc(Cl)c(-c2c(C(=O)O)sc3cc(F)ccc23)c1F (atropisomer, axis not shown) [Example 15]

>  <quantity>
IC50

>  <unitsOfMeasure>
µM

>  <valueQualifier>
>

>  <reading>
60

$$$$
>  <molecule>
C[C@@H]1CCc2cc(-c3c(C(=O)O)sc4cc(F)ccc34)ccc2O1 (single isomer, unassigned) [Example 44]

>  <quantity>
IC50

>  <unitsOfMeasure>
µM

>  <valueQualifier>
>

>  <reading>
56

$$$$
